# SYSTEM_NAME: human PGI2 receptors (hIP) (Homo sapiens, UniProt P43119)
# Construct: expressed in transfected cells; host or cells: CHO-K1
# Sequence (P43119 whole entry): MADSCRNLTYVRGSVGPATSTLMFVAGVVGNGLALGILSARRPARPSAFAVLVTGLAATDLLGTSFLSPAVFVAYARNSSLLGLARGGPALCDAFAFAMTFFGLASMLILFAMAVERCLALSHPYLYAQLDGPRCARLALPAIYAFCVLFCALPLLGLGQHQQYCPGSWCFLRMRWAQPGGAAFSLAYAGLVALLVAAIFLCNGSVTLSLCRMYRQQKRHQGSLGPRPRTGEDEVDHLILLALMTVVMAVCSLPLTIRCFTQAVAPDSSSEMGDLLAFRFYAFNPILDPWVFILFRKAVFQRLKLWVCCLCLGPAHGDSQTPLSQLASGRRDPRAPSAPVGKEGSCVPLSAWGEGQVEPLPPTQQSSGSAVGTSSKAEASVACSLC
# METHOD: Method B: positive allosteric modulator activity, cAMP in CHO/hIP cells with 1 nM epoprostenol
# Type: cell-based
# MEASUREMENT_CONDITIONS: cAMP relative to 1 nM epoprostenol alone, test concentration 10 uM
Exercise: for every item that follows, state its recorded T/C.
Answers are plain numbers, in %.

> print(dat)
                                   compound                               system.name  unit.annotation  reported.result
1  CSc1ccccc1C(c1nnnn1C1(C)CCCCCC1)N1CCc2ccccc2C1 (centres unmarked)  human PGI2 receptors (hIP) (Homo sapiens, UniProt P43119)                %            121.9
2  COc1cccc(OC)c1C(c1nnnn1C(C)(C)C)N1CCc2ccccc2C1 (centres unmarked)  human PGI2 receptors (hIP) (Homo sapiens, UniProt P43119)                %            104.9
3  Cc1ccc(C(c2nnnn2C(C)(C)C)N2CCc3ccccc3C2)cc1 (centres unmarked)  human PGI2 receptors (hIP) (Homo sapiens, UniProt P43119)                %            153.2
4  COc1cc[nH]c1C(c1nnnn1C(C)(C)C)N1CCc2ccccc2C1 (centres unmarked)  human PGI2 receptors (hIP) (Homo sapiens, UniProt P43119)                %            267.8

--- query ---
# lookup: human PGI2 receptors (hIP) (Homo sapiens, UniProt P43119) T/C, key = Cc1ccccc1C(c1nnnn1C(C)(C)C)N1CCc2c(Cl)cccc2C1 (centres unmarked)
135.5

FYI, the data here is from patent US20160368895A1.
